quantity.kind: melting point (°C)

Cc1ccc(-c2c(-c3ccc(S(C)(=O)=O)cc3)oc(C)cc2=O)cc1 [Compound 10] ... 205
Cc1cc(=O)c(-c2ccc(Br)cc2)c(-c2ccc(S(C)(=O)=O)cc2)o1 [Compound 8] ... 198
Cc1cc(=O)c(-c2ccccc2)c(-c2ccc(S(N)(=O)=O)cc2)o1 [Compound 54] ... 218
Cc1cc(=O)c(-c2ccc(F)cc2Cl)c(-c2ccc(S(C)(=O)=O)cc2)o1 [Compound 27] ... 113

[a] Cc1cc(=O)c(-c2ccc(C(F)(F)F)cc2)c(-c2ccc(S(C)(=O)=O)cc2)o1 [Compound 13]
[b] CS(=O)(=O)c1ccc(-c2oc(C#N)cc(=O)c2-c2ccc(F)cc2F)cc1 [Compound 59]
Sorting ascending by melting point, which comes first: a or b ? Returns: label corresponding to the selected item.
b
(b: 113 °C, a: 172 °C)

[I] Cc1cc(=O)c(-c2cccc(F)c2)c(-c2ccc(S(C)(=O)=O)cc2)o1 [Compound 3]
[II] Cc1cccc(-c2c(-c3ccc(S(C)(=O)=O)cc3)oc(C)cc2=O)c1 [Compound 11]
# returns the entry with the larger melting point; inputs I and II Returns: label corresponding to the selected item.
I

[a] Cc1cc(=O)c(Oc2ccc(Cl)cc2)c(-c2ccc(S(N)(=O)=O)cc2)o1 [Compound 57]
[b] Cc1cc(=O)c(-c2ccc(Cl)c(Cl)c2)c(-c2ccc(S(N)(=O)=O)cc2)o1 [Compound 56]
# returns the entry with the larger melting point; inputs a and b Returns: label corresponding to the selected item.
a

###

quantity.kind: melting point (°C)

COCc1cc(=O)c(-c2ccc(Cl)cc2)c(-c2ccc(S(C)(=O)=O)cc2)o1 (hydrate or solvate) ... 162
Cc1cc(=O)c(Oc2ccc(F)cc2F)c(-c2ccc(S(C)(=O)=O)cc2)o1 ... 191
Cc1cc(=O)c(-c2ccccc2Cl)c(-c2ccc(S(C)(=O)=O)cc2)o1 ... 148
Cc1cc(=O)c(-c2ccc(Cl)cc2Cl)c(-c2ccc(S(C)(=O)=O)cc2)o1 ... 203
Cc1cc(=O)c(-c2c(F)cccc2F)c(-c2ccc(S(C)(=O)=O)cc2)o1 ... 206
Cc1cc(=O)c(-c2ccc(F)cc2F)c(-c2ccc(S(C)(=O)=O)cc2)o1 ... 208
Cc1cc(=O)c(Oc2cc(F)ccc2F)c(-c2ccc(S(C)(=O)=O)cc2)o1 ... 189
Cc1cc(=O)c(-c2ccc(Cl)cc2)c(-c2ccc(S(C)(=O)=O)cc2)o1 ... 182
Cc1cc(=O)c(-c2cc(F)ccc2F)c(-c2ccc(S(C)(=O)=O)cc2)o1 ... 183
Cc1ccc(Oc2c(-c3ccc(S(C)(=O)=O)cc3)oc(C)cc2=O)cc1 ... 183

###

We begin with a simple list: items and their reported melting point.

Cc1cc(=O)c(-c2ccccc2F)c(-c2ccc(S(C)(=O)=O)cc2)o1 ... 136 to 137 °C
Cc1cc(=O)c(-c2ccccc2C)c(-c2ccc(S(C)(=O)=O)cc2)o1 ... 91 to 93 °C

Field: next molecule
Bench note: what melting point did Cc1cc(=O)c(C2CCCCC2)c(-c2ccc(S(C)(=O)=O)cc2)o1 show?
98 to 99 °C
